assay: Human HepG2 cell viability assay in 384 well format; type: toxicity, cell-based; design: dose 125 nL, time 70.5 hour; concentration not given beside the values; settings: HepG2 cells, read-out: Inhibition
cytotoxicity at 70.5 h values by entry
Output spec: scalar in %, unitless text.

The compound listed as Cc1nccc(N[C@H]2CN(C(=O)CCN3CCCC3=O)C[C@@H]2C(C)C)n1 has a reported cytotoxicity at 70.5 h of -19.6

The compound listed as Cc1nc(O)cc(C2CCCN(C(=O)c3cccc(N(C)C)c3)C2)n1 (configuration not stated) has a reported cytotoxicity at 70.5 h of 5.24

The compound listed as CCNc1cc2c(nn1)CCN(C(=O)c1ccnc(C)n1)C2 has a reported cytotoxicity at 70.5 h of -2.85

The compound listed as CCCN(Cc1cnn(C)c1)S(=O)(=O)c1cccc(F)c1C#N has a reported cytotoxicity at 70.5 h of -2.96

The compound listed as Cc1ccccc1-c1noc(CNc2ccc(F)cc2OCCO)n1 has a reported cytotoxicity at 70.5 h of 1.21

The compound listed as NC(=O)c1nc2c(s1)CCN(C(=O)Nc1ccccc1)CC2 has a reported cytotoxicity at 70.5 h of 9.18
